biological target: Ribosomal protein S6 kinase alpha-3 (Homo sapiens) (UniProt P51812); conditions: at 0.1 µM;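 also: reported value is a mean inhibition figure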
Sequence (P51812 whole entry): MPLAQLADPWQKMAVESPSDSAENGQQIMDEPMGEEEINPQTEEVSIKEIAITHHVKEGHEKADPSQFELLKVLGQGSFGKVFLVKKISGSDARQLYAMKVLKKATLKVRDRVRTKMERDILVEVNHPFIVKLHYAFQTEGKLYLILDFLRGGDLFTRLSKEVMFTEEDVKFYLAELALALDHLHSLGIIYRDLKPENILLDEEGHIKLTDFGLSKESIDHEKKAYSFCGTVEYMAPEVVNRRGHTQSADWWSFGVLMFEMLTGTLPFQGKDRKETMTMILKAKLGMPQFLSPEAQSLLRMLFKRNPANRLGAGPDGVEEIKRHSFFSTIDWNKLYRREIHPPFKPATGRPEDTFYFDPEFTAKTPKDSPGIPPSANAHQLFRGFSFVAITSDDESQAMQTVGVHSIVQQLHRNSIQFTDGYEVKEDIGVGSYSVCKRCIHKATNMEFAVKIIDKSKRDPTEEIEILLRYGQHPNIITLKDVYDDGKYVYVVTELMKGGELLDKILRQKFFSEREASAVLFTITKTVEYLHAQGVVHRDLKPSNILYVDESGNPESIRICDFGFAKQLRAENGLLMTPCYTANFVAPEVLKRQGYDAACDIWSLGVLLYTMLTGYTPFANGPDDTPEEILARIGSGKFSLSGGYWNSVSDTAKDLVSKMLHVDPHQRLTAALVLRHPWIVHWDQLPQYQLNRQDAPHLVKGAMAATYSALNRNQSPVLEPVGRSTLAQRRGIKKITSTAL
Classification field: 1 = inhibition at or over 2%; 0 = inhibition under 2%.

input: Please tell me: is the compound Cn1c(-c2nonc2N)nc2cnccc21 at or over 2% in terms of inhibition?
output: 1

input: inhibition >= 2% for CN(C)CCNC(=O)Nc1ccc(N(C)c2ccnc(Nc3ccc(CS(C)(=O)=O)cc3)n2)cc1 ?
output: 0

input: I'd appreciate it if you could say whether NC(=O)c1ccc2c(-c3ccnc(NCCCO)n3)c(-c3ccc(F)cc3)nn2c1 has inhibition at least equal to 2%.
output: 0

input: hey, is inhibition for this one >= 2%? CCn1c(-c2nonc2N)nc2cncc(C(=O)NCCNC)c21
output: 1
